study_target: Geranylgeranyl transferase type I (Homo sapiens, UniProt P49354+P53609)
experiment_notes: Inhibition of Geranylgeranyl transferase type I
pIC50: −log10 of the molar value.
reported_endpoint: pIC50

substance_smiles: COCCN(C)C(=O)c1cn(Cc2cncn2Cc2ccc3c(c2)OCO3)cc1-c1cccc2ccccc12
pIC50: 5.00
//
substance_smiles: CN1CCN(C(=O)c2cn(Cc3cncn3Cc3ccc4c(c3)OCO4)cc2-c2cccc3ccccc23)CC1
pIC50: 4.80
//
substance_smiles: O=C(c1cn(Cc2cncn2Cc2ccc3c(c2)OCO3)cc1-c1cccc2ccccc12)N1CCOCC1
pIC50: 4.92

* * *

study_target: Protein farnesyltransferase (Homo sapiens, UniProt P49354+P49356)
experiment_notes: Inhibition of farnesyltransferase activity against K-Ras
Assay type: protein-complex assay
pIC50: −log10 of the molar value.
reported_endpoint: pIC50

A = Cn1cncc1Cn1cc(C(=O)N2CCOCC2)c(-c2cccc3ccccc23)c1
B = O=C(c1cn(Cc2c[nH]cn2)cc1-c1cccc2ccccc12)N1CCOCC1
C = O=C(c1cn(Cc2cncn2Cc2ccccc2)cc1-c1cccc2ccccc12)N1CCOCC1
Let's sort these by pIC50, smallest first. Go ahead? Output the labels ranked as instructed. B, A, C
(B: 5.74, A: 7.00, C: 8.68)

Data origin: ChEMBL document CHEMBL1133861
